src = the supplement of paper PMC12455559

Kindly state PET hydrolysis for each of the entries shown.
assay: PET hydrolysis, aromatic products released after 48 h (umol product/mg enzyme); higher = more PET depolymerization activity; settings: substrate: aFilm; 60 °C; pH 4.5

>  <ordered.residues>
ADNPYQRGPDPTAASIAAVTGPFATASVTVPRGNGFGGGVIYYPTDTSQGTFGGIAISPGLNGTWPGIAWLGPRLASQGFVVFGIETNNLNDSPTSRGTQLLAALDYLTGSSSVRTRVDAGRLAVAGHSMGGGGALDAALRRPSLRATIGNAPHLPSGSLANDRVPTLIYAMQNDTLVPPSRLTSLYNTVPATTERGYLEITGAGHNYIGQPSTILARTMIPWLKIFVDDDARYSQFLCPLTDRSGISQYQSSCPLITTSPTTGPTAQPTTAAPTTTPTTPPVGGPCEATHRTVNSWSGGYQGEVTVRAGSAAINGWTVSWTLGSGQTINQVWGGALTASGTAATVRNETWNGPVAAGASTTFGYIATGNAPTQPLACSAR [ESM060]

>  <PET hydrolysis>
< 3

$$$$
>  <ordered.residues>
ADNPYQRGPNPTAASIAATTGPFAIASVSVARGNGFGGGVIYYPTDTSQGTFGAIAISPGLNGTWPGIAWLGPRLASQGFVVFGIETNNLNDSPTSRGTQLLAALDYLTQRSSVRTRVDATRLAVAGHSMGGGGALDAALRRPSLQAAIGNAPYLPSGNLSTDRVPTLIYAMQNDTLVPPSRLTTMYNTIPATTERGYIQITGAGHNYIGQPSTNLARTMIPWFKIFIDNDTRFSQFLCPLSNMSGISQYRNSCPLI [ESM159]

>  <PET hydrolysis>
< 3

$$$$
>  <ordered.residues>
QAPDRTALARTGPYQVAYYTQLPPAAEFSAATLFFPANKAQAFGGVVIAPGYTEKQVNVQWWGYHLASHGYAVLVLDTNDPEEYPDRRADALMAGVAVLRGENTRMGSTLRGKILEGRIALMGHSMGGGGTLLAANGHSDQLKTIIPFTPWLPGADFSAVSVPTLVLAGEIDRIAAVKDHAWPHYESLTGAVPRMYLEVKGGNHYIANSMTDREDRNPNIDVHDLVGSMVVAWLKTFLDDDESYRELVFGDLPEADRVRISRLEFVE [TEP006]

>  <PET hydrolysis>
< 3

$$$$

Need PET hydrolysis for each of these sequences.
1. MAADNPYQRGPNPTSASVAASRGTFATAELSVPRGNGFGGGKIYYPTDTTQGTFGAIAIVPGYTATWAAEGAWMGHWLASFGFVVIGIDTNSRNDNDTARGTQLLAALDYLTQRSSVRGRVDAKRLAVMGHSMGGGGALVAARQRPSLKAAVGLAPFKPSGPPSADRVPTMVIAGQRDGTVTPSYVDGLYRAIPAGTEKAYLEFAGAGHAFPTRPNPLQMRLVIPWLKSFTDHDTRYHQFLCPLKDRTGVTAYRSTCPLVAPGARD [TEP041]
2. CVTPAPPPAPDVATVTVGAGNGFGGGTIYYPQGATGRLPVVAASPGFTENQNAVGWYGPLLAREGNIVITIDTNSPFDSPTSRADQLLAAIDYVVNRSSVASIADGSRTAVMGHSMGGGGSLEAALKRPGLKAIIPLAPWNTTTNFSGVRVPTLIVGCQNDAIAPVGSHAEPFYQSIPATTPKAYLEIAGGDHFCTNSENPTIANYVVAWTDRFLQGDTSASSRLCPPPPAGGSISEYRANCPY [ESM050]

[reply]
< 3
5
